binding signal reference
# target: HNF4alpha8 (COS-7 nuclear extract) (Homo sapiens, UniProt P41235-5 1-452)
# Sequence: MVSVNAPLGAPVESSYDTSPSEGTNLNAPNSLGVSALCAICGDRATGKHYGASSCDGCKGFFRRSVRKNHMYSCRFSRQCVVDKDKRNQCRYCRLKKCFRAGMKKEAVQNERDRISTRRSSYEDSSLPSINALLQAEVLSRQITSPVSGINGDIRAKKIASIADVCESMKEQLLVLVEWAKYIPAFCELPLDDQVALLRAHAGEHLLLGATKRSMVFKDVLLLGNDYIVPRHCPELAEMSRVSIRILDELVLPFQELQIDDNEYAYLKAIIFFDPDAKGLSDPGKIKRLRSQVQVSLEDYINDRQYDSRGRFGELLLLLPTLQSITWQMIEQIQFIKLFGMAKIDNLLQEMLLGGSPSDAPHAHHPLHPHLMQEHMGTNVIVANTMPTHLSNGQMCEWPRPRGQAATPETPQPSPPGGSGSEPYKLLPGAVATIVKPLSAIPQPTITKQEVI
# measurement-notes: protein-binding microarray; COS-7 nuclear extract on double-stranded Agilent 4x180k PBM; binding buffer, salt, pH and temperature not given in the material; high values mean tight binding
# condition-description: chain copies: 2; label: 3' end of strand 1 on the slide; dsDNA, one strand shown
Over roughly 18,000 sequences, “log2 normalized intensity” has its median near 0.36; the highest 2% begin near 7.3. For the sample, the highest values were picked, then their nearest neighbours and some sequences at random.
reported-metric: binding signal (log2 normalized intensity)

sequence-string: ATGTCTCCAGAAACCAACCTTTGATCATTCGCCTAGGGAGATTAGAGTATCGGTCGA
reported-metric: binding signal
measurement-unit: log2 normalized intensity
quantitative-result: 5.75

sequence-string: TGACCTTTGTCCTGGCACAACTGGATGGTGGCCTAGGGAGATTAGAGTATCGGTCGA
reported-metric: binding signal
measurement-unit: log2 normalized intensity
quantitative-result: 5.2

sequence-string: ACTTCTGTCTCCAGAAATCAACCTTTGATCGCCTAGGGAGATTAGAGTATCGGTCGA
reported-metric: binding signal
measurement-unit: log2 normalized intensity
quantitative-result: 8.8

sequence-string: GTTGCCTGTGAGTCAGGTACCTGCTTCTGCGCCTAGGGAGATTAGAGTATCGGTCGA
reported-metric: binding signal
measurement-unit: log2 normalized intensity
quantitative-result: 0.609

sequence-string: AGAATCATCTTTGAGCTGGATGACCTTTGTGCCTAGGGAGATTAGAGTATCGGTCGA
reported-metric: binding signal
measurement-unit: log2 normalized intensity
quantitative-result: 8.24

----------
# target: HNF4alpha8 (COS-7 nuclear extract) (Homo sapiens, UniProt P41235-5 1-452)
# Sequence: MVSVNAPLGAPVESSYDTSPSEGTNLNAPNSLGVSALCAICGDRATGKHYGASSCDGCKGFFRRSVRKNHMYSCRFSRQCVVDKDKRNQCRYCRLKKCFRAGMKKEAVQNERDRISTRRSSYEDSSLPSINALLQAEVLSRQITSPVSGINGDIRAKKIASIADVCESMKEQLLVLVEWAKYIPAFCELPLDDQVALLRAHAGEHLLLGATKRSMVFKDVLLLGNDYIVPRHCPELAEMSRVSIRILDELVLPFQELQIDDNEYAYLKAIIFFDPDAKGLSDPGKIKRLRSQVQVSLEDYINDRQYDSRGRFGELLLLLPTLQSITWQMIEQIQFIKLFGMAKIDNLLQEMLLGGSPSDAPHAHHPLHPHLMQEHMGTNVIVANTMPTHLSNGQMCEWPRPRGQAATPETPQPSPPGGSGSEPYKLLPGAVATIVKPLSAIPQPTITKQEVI
# measurement-notes: protein-binding microarray; COS-7 nuclear extract on double-stranded Agilent 4x180k PBM; binding buffer, salt, pH and temperature not given in the material; high values mean tight binding
# condition-description: chain copies: 2; label: 3' end of strand 1 on the slide; dsDNA, one strand shown
Over roughly 18,000 sequences, “log2 normalized intensity” has its median near 0.36; the highest 2% begin near 7.3. The entries come from a sample that favours the highest values as a whole.
binding signal reference

sequence-string: GTCCACACATTCCTAGACCTTTGACCTTTAGCCTAGGGAGATTAGAGTATCGGTCGA
target: HNF4alpha8 (COS-7 nuclear extract) (Homo sapiens, UniProt P41235-5 1-452)
binding signal / log2 normalized intensity: 8.88
//
sequence-string: TAGGGCCTTGCTATGGAGTGGACTTTGGCTGCCTAGGGAGATTAGAGTATCGGTCGA
target: HNF4alpha8 (COS-7 nuclear extract) (Homo sapiens, UniProt P41235-5 1-452)
binding signal / log2 normalized intensity: 7.22
//
sequence-string: CCTTTGCACCAGAGATAATATGCTTACTTAGCCTAGGGAGATTAGAGTATCGGTCGA
target: HNF4alpha8 (COS-7 nuclear extract) (Homo sapiens, UniProt P41235-5 1-452)
binding signal / log2 normalized intensity: 0.614
//
sequence-string: CACATTCCTAGACCTTTGACCTTTATACCTGCCTAGGGAGATTAGAGTATCGGTCGA
target: HNF4alpha8 (COS-7 nuclear extract) (Homo sapiens, UniProt P41235-5 1-452)
binding signal / log2 normalized intensity: 8.55
//
sequence-string: ATTGTGATTCCTGTGATACCTTCTTTGCCTGCCTAGGGAGATTAGAGTATCGGTCGA
target: HNF4alpha8 (COS-7 nuclear extract) (Homo sapiens, UniProt P41235-5 1-452)
binding signal / log2 normalized intensity: 0.781
//
sequence-string: GGACTTTGGCCTTACTTGGCCTGTTTGCTGGCCTAGGGAGATTAGAGTATCGGTCGA
target: HNF4alpha8 (COS-7 nuclear extract) (Homo sapiens, UniProt P41235-5 1-452)
binding signal / log2 normalized intensity: 5.89
//
sequence-string: CTTGGCACTTAGCACAAGTGACTATTCTGGGCCTAGGGAGATTAGAGTATCGGTCGA
target: HNF4alpha8 (COS-7 nuclear extract) (Homo sapiens, UniProt P41235-5 1-452)
binding signal / log2 normalized intensity: 0.0244
//
sequence-string: CTTTATACCTGTACGTTACTCTGTACCTCGGCCTAGGGAGATTAGAGTATCGGTCGA
target: HNF4alpha8 (COS-7 nuclear extract) (Homo sapiens, UniProt P41235-5 1-452)
binding signal / log2 normalized intensity: 1.8
//
sequence-string: AGGGGCTATTTCTGACCTTTGCACCAGAGAGCCTAGGGAGATTAGAGTATCGGTCGA
target: HNF4alpha8 (COS-7 nuclear extract) (Homo sapiens, UniProt P41235-5 1-452)
binding signal / log2 normalized intensity: 7.69
//
sequence-string: GAGTTGGAGAAGAGCAAAGATCATCTGGTGGCCTAGGGAGATTAGAGTATCGGTCGA
target: HNF4alpha8 (COS-7 nuclear extract) (Homo sapiens, UniProt P41235-5 1-452)
binding signal / log2 normalized intensity: 1.45
//
sequence-string: ATTGGGTCCACACATTCCTAGACCTTTGACGCCTAGGGAGATTAGAGTATCGGTCGA
target: HNF4alpha8 (COS-7 nuclear extract) (Homo sapiens, UniProt P41235-5 1-452)
binding signal / log2 normalized intensity: 3.87
//
sequence-string: TGGACTGTTCAAGACCAAAGGTCATGGCAAGCCTAGGGAGATTAGAGTATCGGTCGA
target: HNF4alpha8 (COS-7 nuclear extract) (Homo sapiens, UniProt P41235-5 1-452)
binding signal / log2 normalized intensity: 5.58
//
sequence-string: TACTTTGGACTGGGGACCTGGTCTGAGATAGCCTAGGGAGATTAGAGTATCGGTCGA
target: HNF4alpha8 (COS-7 nuclear extract) (Homo sapiens, UniProt P41235-5 1-452)
binding signal / log2 normalized intensity: 1.25
//
sequence-string: AGTGTGTAAGTATGCTCACTGACCTCTGCCGCCTAGGGAGATTAGAGTATCGGTCGA
target: HNF4alpha8 (COS-7 nuclear extract) (Homo sapiens, UniProt P41235-5 1-452)
binding signal / log2 normalized intensity: 3.94
//
sequence-string: TTCCGCGGACGTGTTCCCACAGTGCCCTCTGCCTAGGGAGATTAGAGTATCGGTCGA
target: HNF4alpha8 (COS-7 nuclear extract) (Homo sapiens, UniProt P41235-5 1-452)
binding signal / log2 normalized intensity: 3.77
//
sequence-string: TGAGACATGAATCCATCCCACCTCACTTATGCCTAGGGAGATTAGAGTATCGGTCGA
target: HNF4alpha8 (COS-7 nuclear extract) (Homo sapiens, UniProt P41235-5 1-452)
binding signal / log2 normalized intensity: 1.12
//
sequence-string: GCCACATCCTGTCTCCTTTAACCTTCATTCGCCTAGGGAGATTAGAGTATCGGTCGA
target: HNF4alpha8 (COS-7 nuclear extract) (Homo sapiens, UniProt P41235-5 1-452)
binding signal / log2 normalized intensity: 1.97
//
sequence-string: TCTGACCAGGCTGATTTAGCTATTTGACCTGCCTAGGGAGATTAGAGTATCGGTCGA
target: HNF4alpha8 (COS-7 nuclear extract) (Homo sapiens, UniProt P41235-5 1-452)
binding signal / log2 normalized intensity: 4.7
//
sequence-string: GAGGCTCAGACCTGACCTTTGGATTCCCAGGCCTAGGGAGATTAGAGTATCGGTCGA
target: HNF4alpha8 (COS-7 nuclear extract) (Homo sapiens, UniProt P41235-5 1-452)
binding signal / log2 normalized intensity: 7.11
//
sequence-string: CCCCTTCTGTTTCCAGAAATCTGACCTCTGGCCTAGGGAGATTAGAGTATCGGTCGA
target: HNF4alpha8 (COS-7 nuclear extract) (Homo sapiens, UniProt P41235-5 1-452)
binding signal / log2 normalized intensity: 5.06
//
sequence-string: TCCTAGACCTTTGACCTTTATACCTGTACGGCCTAGGGAGATTAGAGTATCGGTCGA
target: HNF4alpha8 (COS-7 nuclear extract) (Homo sapiens, UniProt P41235-5 1-452)
binding signal / log2 normalized intensity: 6.76
//
sequence-string: AAAGGCCTTTGAAGCTTGAAGGAGTATATGGCCTAGGGAGATTAGAGTATCGGTCGA
target: HNF4alpha8 (COS-7 nuclear extract) (Homo sapiens, UniProt P41235-5 1-452)
binding signal / log2 normalized intensity: 0.256
//
sequence-string: TTGACCTTTATACCTGTACGTTACTCTGTAGCCTAGGGAGATTAGAGTATCGGTCGA
target: HNF4alpha8 (COS-7 nuclear extract) (Homo sapiens, UniProt P41235-5 1-452)
binding signal / log2 normalized intensity: 4.37
//
sequence-string: GAGATGAGGCTCAGACCTGACCTTTGGATTGCCTAGGGAGATTAGAGTATCGGTCGA
target: HNF4alpha8 (COS-7 nuclear extract) (Homo sapiens, UniProt P41235-5 1-452)
binding signal / log2 normalized intensity: 8.85
//
sequence-string: CAGAAGCAATCACAAGGAATGCCCTTATCTGCCTAGGGAGATTAGAGTATCGGTCGA
target: HNF4alpha8 (COS-7 nuclear extract) (Homo sapiens, UniProt P41235-5 1-452)
binding signal / log2 normalized intensity: 2.11
//
sequence-string: GGACCTGAGGCTTTTGAGTCAATAATGGACGCCTAGGGAGATTAGAGTATCGGTCGA
target: HNF4alpha8 (COS-7 nuclear extract) (Homo sapiens, UniProt P41235-5 1-452)
binding signal / log2 normalized intensity: 1.38
//
sequence-string: AGACTGGTTTGCACAGGTTACACAGTATGTGCCTAGGGAGATTAGAGTATCGGTCGA
target: HNF4alpha8 (COS-7 nuclear extract) (Homo sapiens, UniProt P41235-5 1-452)
binding signal / log2 normalized intensity: -0.754
//
sequence-string: CCCAAGATGGATTGGGTCCACACATTCCTAGCCTAGGGAGATTAGAGTATCGGTCGA
target: HNF4alpha8 (COS-7 nuclear extract) (Homo sapiens, UniProt P41235-5 1-452)
binding signal / log2 normalized intensity: 0.829
//
sequence-string: GTACTTAAAAATGCCTTTCATCTTTGAGAAGCCTAGGGAGATTAGAGTATCGGTCGA
target: HNF4alpha8 (COS-7 nuclear extract) (Homo sapiens, UniProt P41235-5 1-452)
binding signal / log2 normalized intensity: 0.583
//
sequence-string: TGATTATTTGTGAAGGCATTATTGGTGAAAGCCTAGGGAGATTAGAGTATCGGTCGA
target: HNF4alpha8 (COS-7 nuclear extract) (Homo sapiens, UniProt P41235-5 1-452)
binding signal / log2 normalized intensity: 0.974
//
sequence-string: TTTATTAGGGGTCAGCAAAGAACTCCCCAGGCCTAGGGAGATTAGAGTATCGGTCGA
target: HNF4alpha8 (COS-7 nuclear extract) (Homo sapiens, UniProt P41235-5 1-452)
binding signal / log2 normalized intensity: 2.41
//
sequence-string: CACCTGTGTCAACATGGACTTTGTTGTTTGGCCTAGGGAGATTAGAGTATCGGTCGA
target: HNF4alpha8 (COS-7 nuclear extract) (Homo sapiens, UniProt P41235-5 1-452)
binding signal / log2 normalized intensity: 4.99
//
sequence-string: CTATTTCTGACCTTTGCACCAGAGATAATAGCCTAGGGAGATTAGAGTATCGGTCGA
target: HNF4alpha8 (COS-7 nuclear extract) (Homo sapiens, UniProt P41235-5 1-452)
binding signal / log2 normalized intensity: 6.97
//
sequence-string: TACTTAGTGTTTTATGTGTATTTACTTATTGCCTAGGGAGATTAGAGTATCGGTCGA
target: HNF4alpha8 (COS-7 nuclear extract) (Homo sapiens, UniProt P41235-5 1-452)
binding signal / log2 normalized intensity: 1.74
//
sequence-string: AAGACAGGGGCTATTTCTGACCTTTGCACCGCCTAGGGAGATTAGAGTATCGGTCGA
target: HNF4alpha8 (COS-7 nuclear extract) (Homo sapiens, UniProt P41235-5 1-452)
binding signal / log2 normalized intensity: 10.2
//
sequence-string: TGAATGATCAAAGGTTGGTTTTTGGAGACAGCCTAGGGAGATTAGAGTATCGGTCGA
target: HNF4alpha8 (COS-7 nuclear extract) (Homo sapiens, UniProt P41235-5 1-452)
binding signal / log2 normalized intensity: 3.36
//
sequence-string: GTTGGACTTTGGACCTTTGTGTGTGTGTGTGCCTAGGGAGATTAGAGTATCGGTCGA
target: HNF4alpha8 (COS-7 nuclear extract) (Homo sapiens, UniProt P41235-5 1-452)
binding signal / log2 normalized intensity: 8.31
